- measurement-target: Integrin beta-1 (Homo sapiens) + Integrin alpha-4 (Homo sapiens) (UniProt P13612+P05556)
- assay-details: inhibition of HUTS-21 binding to VLA-4, pilot screen, VLA-4 allosteric modulator project, U937 cells, HUTS-21 mAb, flow cytometry, validation set (AID 2674);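 further: antibody binding induced by the VLA-4 ligand LDV present at three times its Kd; 0% = LDV ligand with antibody and no compound and 100% = antibody without LDV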
- condition-parameters: HUTS-21 LIBS mAb binding, at 6.7 µM, active compounds read high
As shown below, each of these molecules has a reported inhibition value.
Dear colleague, please return just the value in %, with no unit written.

Reference set, count: 4
molecule	inhibition / %
C[N+]1(C)C2CCC1CC(OC(=O)C(CO)c1ccccc1)C2 (stereo not given)	-6.68
Cc1nc2ccccc2c(=O)n1-c1ccc(C(=O)O)cc1	2.93
O=C1NCCN2CCCC12 (stereo not given)	12.3
CCC1(c2ccccc2)C(=O)N(COC)C(=O)N(COC)C1=O	10.8

Next, consider the following molecule.
Kindly note the recorded inhibition for C=C1[C@@H](C)[C@H]2[C@H](Cc3ccccc3)NC(=O)[C@]23OC(=O)/C=C/[C@H](O)CCC[C@@H](C)C/C=C/[C@H]3[C@@H]1O , which is -2.82

====

- measurement-target: Lethal factor (Bacillus anthracis)
- assay-details: Lethal factor protease inhibitors, Bacillus anthracis, multiplex microsphere cleavage assay, validation set (AID 588461)
- condition-parameters: flow cytometry, at 10 µM, active compounds read high
measure-name: inhibition (%)
Use % as the unit, but write only the number.

Known results for molecules:
molecule	measurement-target	inhibition / %
S=C(c1ccc2c(c1)OCO2)N1CCCCC1	Lethal factor (Bacillus anthracis)	-0.2
COc1cccc(OC2OC3COC(C)(C)OC3C(O)C2NC(C)=O)c1 (configuration not stated)	Lethal factor (Bacillus anthracis)	0.5
COc1ccc(S(N)(=O)=O)cc1C(N)=O	Lethal factor (Bacillus anthracis)	-0.3
CC(=O)NC(Cc1ccccc1)C(=O)OCC(=O)c1ccccc1 (configuration not stated)	Lethal factor (Bacillus anthracis)	-3.3
CC(=O)CCc1oc2ccccc2c1-c1ccccc1	Lethal factor (Bacillus anthracis)	-3.1

So for CCN(CC)C(=O)N[C@H]1C[C@@H]2c3cccc4[nH]cc(c34)C[C@H]2N(C)C1 , the logged inhibition turned out to be -36

For reference, reported inhibition for Cn1c(=O)c2c(ncn2CC(O)CO)n(C)c1=O (configuration not stated) stands at 2

Record COc1ccc(C(=O)Nc2cccc3cccnc23)cc1OC , field inhibition: -4.6

Measured inhibition, CN1CCc2cccc3c2[C@@H]1Cc1ccc(O)c(O)c1-3 : -53.3

inhibition reported for this molecule CCOc1ccc2ccccc2c1C(=O)N[C@@H]1C(=O)N2[C@@H]1SC(C)(C)[C@@H]2C(=O)O : 0.3

Input CC(C)(C)C(=O)N1CCCC1C(=O)O (configuration not stated) . Output inhibition: -0.9

Entry CC/C(=C(\c1ccc(O)cc1)c1ccc(OCCN(C)C)cc1)c1ccccc1 — recorded inhibition = -2.3

Record O=C1C2C3C=CC(C4CC34)C2C(=O)N1/N=C/c1ccc(-c2ccc([N+](=O)[O-])cc2)o1 (configuration not stated) , field inhibition: -1.8

Value of inhibition reported for the molecule O=C(/C=C/c1ccco1)Nc1ccccc1C(=O)O is 1.7

// inhibition lookup, molecule = CCCC(=O)OCC[N+](C)(C)C , result: 1.4

Lab book: inhibition of CC(C)CN1CC(C(=O)O)CC1=O (configuration not stated) noted as 1.5

Item: C[C@H]1CCC/C=C/C2C[C@H](O)CC2[C@H](O)/C=C/C(=O)O1 (some centres not stated) | inhibition: 2.7

The recorded inhibition for COc1cccc(N2CC(O)=C(c3nc4ccccc4c(=O)[nH]3)C2=N)c1 is -6.2

Entry under test: COc1ccccc1CCn1cnc2c3cc(C)ccc3n(C)c2c1=O . Its inhibition was -9.2

Measured inhibition, C[C@H]1O[C@@H](O[C@H]2[C@@H](O)C[C@H](O[C@H]3[C@@H](O)C[C@H](O[C@H]4CC[C@@]5(C)[C@H](CC[C@@H]6[C@@H]5C[C@@H](O)[C@]5(C)[C@@H](C7=CC(=O)OC7)CC[C@]65O)C4)O[C@@H]3C)O[C@@H]2C)C[C@H](O)[C@@H]1O : -2.8

Value of measured inhibition for the entry CC(C)COCC(CN(Cc1ccccc1)c1ccccc1)N1CCCC1 (configuration not stated) : -2

What the record says about CCOC(=O)c1cccc(C(=O)OCC)n1 : inhibition is -6.9

====

Measured inhibition accompanies every entry in the list below.
- measurement-target: Lethal factor (Bacillus anthracis) (UniProt P15917)
- assay-details: Lethal factor protease inhibitors, Bacillus anthracis, multiplex microsphere cleavage assay, validation set (AID 588461)
- condition-parameters: flow cytometry, at 10 µM, active compounds read high
Unit % implied. Number only.

Worked cases, answers included:
compound	result-units	inhibition
Cc1cccc(OCC(=O)Nc2ccc(C(=O)NCC(C)C)cc2)c1	%	-4.3
c1ccc2c(c1)CCCC2C1=NCCN1 (stereo not given)	%	0.6
CCC(C)NCCOc1ccccc1C (stereo not given)	%	5.2
O=C1C(=O)c2ccccc2-c2ccccc21	%	-4.7
Nc1cccc2c1nnn2C1OC(CO)C(O)C(O)C1O (stereo not given)	%	3.5
CCc1cccc(OC2OC(CO)C(O)C(O)C2NC(C)=O)c1 (stereo not given)	%	-4.6

inhibition recorded for this compound, CC1(C)C2CCC1(C(=O)O)c1nc3ccccc3nc12 (stereo not given) , is -0.2

// sample CC(=O)O[C@]1(C(C)=O)CC[C@H]2[C@@H]3C[C@H](C)C4=CC(=O)CC[C@]4(C)[C@H]3CC[C@@]21C , its inhibition was -5.5

The value of inhibition measured for the compound O=C(O)CCCc1ccccc1 turned out to be -6.6

Value of measured inhibition for the entry O=C1CC(c2ccc(F)cc2)Cc2nc(NCC3CCCO3)ncc21 (stereo not given) : -6.1

Noted for Cn1c(=S)n(C)c2ccccc21 : its inhibition reads 2.8

Measured inhibition of NS(=O)(=O)c1ccc(CNC(=O)c2cc(-c3ccccc3)nc3ccccc23)cc1 : -4.8

Summary for this compound, Nc1ccc(N=Nc2ccccc2)c(N)n1 : inhibition is -0.6

====

- assay-details: inhibitors of fungal efflux pumps CDR1, CDR2, MDR1, pilot screen, validation compound set, multiplex, phenotypic (AID 588506);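 further: Nile Red retained in cells so higher fluorescence means more efflux inhibition; 0 = negative control wells and 1 = enniatin B 25 µM full block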
- condition-parameters: S. cerevisiae pump-expressing triplex, Nile Red efflux flow cytometry; at 10 µM
Activity calls are given as the source filed them.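 The calls were made as follows: active = efflux inhibition above 0.42, the validation set average plus 4 SD; inconclusive = no clear call, values can overlap the other calls; inactive = the rest.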
The reply should be one of these categories: active, inactive

Use these answered entries as a reference point.
compound	qualitative-label
CCOc1ccc(N2C(=O)NC(=O)/C(=C\c3cc(OC)c(OC)cc3[N+](=O)[O-])C2=O)cc1	inactive
COc1cc(/C=C2\C(=O)NC(=O)N(c3ccccc3)C2=O)c([N+](=O)[O-])cc1OC	inactive
CCn1ccnc1CN1CCCC(C(=O)c2cc(F)ccc2OC)C1 (stereo unspecified)	inactive

Task item: Recorded call for CC[N+]1(C)CCCC(OC(=O)C(O)(c2ccccc2)c2ccccc2)C1 (stereo unspecified) ?
Reply: inactive

Task item: Any idea what this test logged for CC(C)[C@@]1(NC(=O)[C@@H]2C[C@@H]3c4cccc5[nH]cc(c45)C[C@H]3N(C)C2)O[C@@]2(O)[C@@H]3CCCN3C(=O)[C@H](Cc3ccccc3)N2C1=O ?
Reply: inactive

Task item: Could you kindly confirm the outcome this assay logged for CCOC(=O)c1cc2c(cn1)[nH]c1ccccc12 ?
Reply: inactive

Task item: Identify the outcome logged in this assay for the compound shown: c1ccc2c(c1)[nH]c1cnccc12
Reply: inactive

Task item: Record lookup: outcome of this test for CC1CCC[C@H](O)CCCCCc2cc(O)cc(O)c2C(=O)O1 (stereo partly specified) ?
Reply: active

Task item: What did this assay record as the result for O=c1[nH]c2ccccc2n1C1CCN(CCCC(c2ccc(F)cc2)c2ccc(F)cc2)CC1 ?
Reply: inactive

Task item: Check the results log: what was the call for CC(C)CC12CN3CCN(CC(C3)C1O)C2 (stereo unspecified) ?
Reply: inactive

====

Below: a set of entries, each annotated with reported binding (% of control).
- Test system: anti-desmoglein-3 scFv antibody binding to human DSG3
- assay-details: inhibitors of anti-DSG3 scFv binding to DSG3, pilot screen, biochemical, validation compound set, bead-based, flow cytometry (AID 588368);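 further: signal is the median channel fluorescence of bead-bound GFP antibody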
- condition-parameters: Protein G beads, DSG3-Fc, scFv-GFP binding, at 10 µM, active compounds read low
Give just the numeric value; % need not be written.

molecule	measurement-target	binding (% of control) [%]
CCC1(c2ccccc2)C(=O)N(COC)C(=O)N(COC)C1=O	anti-desmoglein-3 scFv antibody binding to human DSG3	102
COC1=CC(=O)OC(/C=C/c2ccccc2)C1 (configuration not stated)	anti-desmoglein-3 scFv antibody binding to human DSG3	106
[N-]=[N+]=NC1C[C@H](n2ccc(=O)[nH]c2=O)O[C@@H]1CO (some centres not stated)	anti-desmoglein-3 scFv antibody binding to human DSG3	97.7
NCC1(c2ccc3c(c2)OCCO3)CCCC1	anti-desmoglein-3 scFv antibody binding to human DSG3	98.8
C[N+]1(C)[C@@H]2CC[C@H]1CC(OC(=O)C(CO)c1ccccc1)C2 (some centres not stated)	anti-desmoglein-3 scFv antibody binding to human DSG3	98
NCC(O)c1ccc(O)cc1 (configuration not stated)	anti-desmoglein-3 scFv antibody binding to human DSG3	103
c1ccc(Cn2ccnc2)cc1	anti-desmoglein-3 scFv antibody binding to human DSG3	97.7
Cc1cc(Cl)ccc1OCC(=O)O	anti-desmoglein-3 scFv antibody binding to human DSG3	111
C[C@]12CC[C@@H](O)C[C@@H]1CC[C@@H]1[C@@H]2CC[C@]2(C)[C@@H](O)CC[C@@H]12	anti-desmoglein-3 scFv antibody binding to human DSG3	103
CC(=O)Nc1cc([As](=O)(O)O)ccc1O	anti-desmoglein-3 scFv antibody binding to human DSG3	101

Short answer for Nc1ccc([As](=O)(O)O)cc1 : binding (% of control) was 99.6

# binding (% of control) of CCNC(=O)[C@H]1O[C@@H](n2cnc3c(N)ncnc32)[C@H](O)[C@@H]1O = 107
